# System: OVCAR-5 complex spheroid (HUVEC/MSC), viability % T/C
# Assay Info: Anticancer human tumor OVCAR-5 cell line growth inhibition [Asc]
# Test Context: second compound 0.316 µM; first compound 1 µM; active compounds read low
Doc: threshold 80% (exclusive). Items with viability, T/C beneath it return yes (1); others return no (0).

Solved entries (count: 4):
>>> class_label("C=C(F)C(=O)N1CCN(c2nc(OCC3CCCN3C)nc3c2CCN(c2cccc4cccc(Cl)c24)C3)CC1CC#N (stereo not drawn) + CNC(C)C(=O)NC1CN(S(=O)(=O)c2cccc(S(=O)(=O)N3CCC4CCC(C(=O)NC(c5ccccc5)c5ccccc5)N4C(=O)C(NC(=O)C(C)NC)C3)c2)CCC2CCC(C(=O)NC(c3ccccc3)c3ccccc3)N2C1=O")
"yes (1)"
>>> class_label("COc1c(OCCCN2CCOCC2)ccc2c3n(c(=NC(=O)c4cnc(N)nc4)nc12)CCN3 + CNC(C)C(=O)NC1CN(S(=O)(=O)c2cccc(S(=O)(=O)N3CCC4CCC(C(=O)NC(c5ccccc5)c5ccccc5)N4C(=O)C(NC(=O)C(C)NC)C3)c2)CCC2CCC(C(=O)NC(c3ccccc3)c3ccccc3)N2C1=O")
"yes (1)"
>>> class_label("CCN1CCN(Cc2ccc(Nc3ncc(F)c(-c4cc(F)c5nc(C)n(C(C)C)c5c4)n3)nc2)CC1 + Cc1c(S(C)(=O)=O)c(-c2cc(F)cc(N3CCN(c4ccc(NS(=O)(=O)c5ccc(NC(CCN6CCC(C(=O)OCCCP(=O)(O)O)CC6)CSc6ccccc6)c(S(=O)(=O)C(F)(F)F)c5)cc4)CC3)c2)c(-c2ccc(Cl)cc2)n1C(C)C")
"yes (1)"
>>> class_label("C=CC(=O)N1CCN(c2nc(=O)n(-c3c(C)ccnc3C(C)C)c3nc(-c4c(O)cccc4F)c(F)cc23)C(C)C1 (stereo not drawn) + CNC(C)C(=O)NC1CN(S(=O)(=O)c2cccc(S(=O)(=O)N3CCC4CCC(C(=O)NC(c5ccccc5)c5ccccc5)N4C(=O)C(NC(=O)C(C)NC)C3)c2)CCC2CCC(C(=O)NC(c3ccccc3)c3ccccc3)N2C1=O")
"no (0)"

Then this compound:
Inquiry: Lab note: viability, T/C threshold 80%. Does this compound come in strictly under it? O=C(c1cc(Cc2n[nH]c(=O)c3ccccc23)ccc1F)N1CCN(C(=O)C2CC2)CC1 + CNC(C)C(=O)NC1CN(S(=O)(=O)c2cccc(S(=O)(=O)N3CCC4CCC(C(=O)NC(c5ccccc5)c5ccccc5)N4C(=O)C(NC(=O)C(C)NC)C3)c2)CCC2CCC(C(=O)NC(c3ccccc3)c3ccccc3)N2C1=O
Reply text: yes (1)

----------
# Tested on: OVCAR-5 complex spheroid (HUVEC/MSC), viability % T/C
# Assay Info: Anticancer human tumor OVCAR-5 cell line growth inhibition [Asc]; active = viability on the fitted dose curve at most 10% of control; inactive = the rest;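 further: spheroids exposed to agents for 7 days before readout; 100% = DMSO vehicle-treated wells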
# Test Context: second compound 1 µM; first compound 3.16 µM
Choose one outcome from this list and give only that: active, inactive

Reference set (4 entries):
>>> class_label("C#Cc1c(F)ccc2cc(O)cc(-c3ncc4c(N5CC6CCC(C5)N6)nc(OCC56CCCN5CC(F)C6)nc4c3F)c12 (stereo not given) + Cc1c(S(C)(=O)=O)c(-c2cc(F)cc(N3CCN(c4ccc(NS(=O)(=O)c5ccc(NC(CCN6CCC(C(=O)OCCCP(=O)(O)O)CC6)CSc6ccccc6)c(S(=O)(=O)C(F)(F)F)c5)cc4)CC3)c2)c(-c2ccc(Cl)cc2)n1C(C)C")
"inactive"
>>> class_label("C=CC(=O)N1CCN(c2nc(=O)n(-c3c(C)ccnc3C(C)C)c3nc(-c4c(O)cccc4F)c(F)cc23)C(C)C1 (stereo not given) + Cc1c(S(C)(=O)=O)c(-c2cc(F)cc(N3CCN(c4ccc(NS(=O)(=O)c5ccc(NC(CCN6CCC(C(=O)OCCCP(=O)(O)O)CC6)CSc6ccccc6)c(S(=O)(=O)C(F)(F)F)c5)cc4)CC3)c2)c(-c2ccc(Cl)cc2)n1C(C)C")
"inactive"
>>> class_label("C=C(F)C(=O)N1CCN(c2nc(OCC3CCCN3C)nc3c2CCN(c2cccc4cccc(Cl)c24)C3)CC1CC#N (stereo not given) + CNC(C)C(=O)NC1CN(S(=O)(=O)c2cccc(S(=O)(=O)N3CCC4CCC(C(=O)NC(c5ccccc5)c5ccccc5)N4C(=O)C(NC(=O)C(C)NC)C3)c2)CCC2CCC(C(=O)NC(c3ccccc3)c3ccccc3)N2C1=O")
"inactive"
>>> class_label("C#Cc1c(F)ccc2cc(O)cc(-c3ncc4c(N5CC6CCC(C5)N6)nc(OCC56CCCN5CC(F)C6)nc4c3F)c12 (stereo not given) + CNC(C)C(=O)NC1CN(S(=O)(=O)c2cccc(S(=O)(=O)N3CCC4CCC(C(=O)NC(c5ccccc5)c5ccccc5)N4C(=O)C(NC(=O)C(C)NC)C3)c2)CCC2CCC(C(=O)NC(c3ccccc3)c3ccccc3)N2C1=O")
"inactive"

Inquiry: Tell me the assay call for C=C(F)C(=O)N1CCN(c2nc(OCC3CCCN3C)nc3c2CCN(c2cccc4cccc(Cl)c24)C3)CC1CC#N (stereo not given) + Cc1c(S(C)(=O)=O)c(-c2cc(F)cc(N3CCN(c4ccc(NS(=O)(=O)c5ccc(NC(CCN6CCC(C(=O)OCCCP(=O)(O)O)CC6)CSc6ccccc6)c(S(=O)(=O)C(F)(F)F)c5)cc4)CC3)c2)c(-c2ccc(Cl)cc2)n1C(C)C please.
Reply text: active

----------
# System: OVCAR-5 complex spheroid (HUVEC/MSC), viability % T/C
# Assay Info: Anticancer human tumor OVCAR-5 cell line growth inhibition [Asc];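 further: spheroids exposed to agents for 7 days before readout; 100% = DMSO vehicle-treated wells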
# Test Context: second compound 0.0316 µM; first compound 0.316 µM; active compounds read low
Measured Metric: viability, T/C (%)
Answer in %, number only, no unit symbol.

>>> experimental_value("C=CC(=O)N1CCN(c2nc(=O)n(-c3c(C)ccnc3C(C)C)c3nc(-c4c(O)cccc4F)c(F)cc23)C(C)C1 (configuration not stated) + CNC(C)C(=O)NC1CN(S(=O)(=O)c2cccc(S(=O)(=O)N3CCC4CCC(C(=O)NC(c5ccccc5)c5ccccc5)N4C(=O)C(NC(=O)C(C)NC)C3)c2)CCC2CCC(C(=O)NC(c3ccccc3)c3ccccc3)N2C1=O")
83.3

Next item in the queue.
Inquiry: Read off the recorded viability, T/C for CCN1CCN(Cc2ccc(Nc3ncc(F)c(-c4cc(F)c5nc(C)n(C(C)C)c5c4)n3)nc2)CC1 + CNC(C)C(=O)NC1CN(S(=O)(=O)c2cccc(S(=O)(=O)N3CCC4CCC(C(=O)NC(c5ccccc5)c5ccccc5)N4C(=O)C(NC(=O)C(C)NC)C3)c2)CCC2CCC(C(=O)NC(c3ccccc3)c3ccccc3)N2C1=O
Reply text: 57.2

----------
# Tested on: OVCAR-5 complex spheroid (HUVEC/MSC), viability % T/C
# Assay Info: Anticancer human tumor OVCAR-5 cell line growth inhibition [Asc];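 further: spheroids exposed to agents for 7 days before readout; 100% = DMSO vehicle-treated wells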
# Test Context: second compound 0.3 µM; first compound 1 µM; active compounds read low
Measured Metric: viability, T/C (%)
Answer format: numeric, % implied, no suffix.

Field: example entries. Status: answers known.
>>> experimental_value("CCN1CCN(Cc2ccc(Nc3ncc(F)c(-c4cc(F)c5nc(C)n(C(C)C)c5c4)n3)nc2)CC1 + CCN1C(C(=O)NC23CCC(C(=O)O)(CC2)CC3)C(c2cccc(Cl)c2F)C2(C(=O)Nc3cc(Cl)ccc32)C12CCCCC2")
62.4
>>> experimental_value("C#Cc1c(F)ccc2cc(O)cc(-c3ncc4c(N5CC6CCC(C5)N6)nc(OCC56CCCN5CC(F)C6)nc4c3F)c12 (centres undefined) + CCN1C(C(=O)NC23CCC(C(=O)O)(CC2)CC3)C(c2cccc(Cl)c2F)C2(C(=O)Nc3cc(Cl)ccc32)C12CCCCC2")
74.8
>>> experimental_value("O=C(c1ccc(F)c(F)c1Nc1ccc(I)cc1F)N1CC(O)([C@@H]2CCCCN2)C1 + CCN1C(C(=O)NC23CCC(C(=O)O)(CC2)CC3)C(c2cccc(Cl)c2F)C2(C(=O)Nc3cc(Cl)ccc32)C12CCCCC2")
33.2

Next, consider the following compound.
Inquiry: For the compound CNC(C)C(=O)NC1CN(S(=O)(=O)c2cccc(S(=O)(=O)N3CCC4CCC(C(=O)NC(c5ccccc5)c5ccccc5)N4C(=O)C(NC(=O)C(C)NC)C3)c2)CCC2CCC(C(=O)NC(c3ccccc3)c3ccccc3)N2C1=O (centres undefined) + CCN1C(C(=O)NC23CCC(C(=O)O)(CC2)CC3)C(c2cccc(Cl)c2F)C2(C(=O)Nc3cc(Cl)ccc32)C12CCCCC2 , report viability, T/C.
Reply text: 95.3

----------
The compounds listed here are annotated with their viability, T/C.
# Test system: OVCAR-5 complex spheroid (HUVEC/MSC), viability % T/C
# Assay Info: Anticancer human tumor OVCAR-5 cell line growth inhibition [Asc];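 further: spheroids exposed to agents for 7 days before readout; 100% = DMSO vehicle-treated wells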
# Test Context: second compound 0.3 µM; first compound 0.0316 µM; active compounds read low
Your answer is read as %, so omit the unit and give the number.

Here are 9 compounds together with their reported answers.
>>> experimental_value("CCN1CCN(Cc2ccc(Nc3ncc(F)c(-c4cc(F)c5nc(C)n(C(C)C)c5c4)n3)nc2)CC1 + CCN1C(C(=O)NC23CCC(C(=O)O)(CC2)CC3)C(c2cccc(Cl)c2F)C2(C(=O)Nc3cc(Cl)ccc32)C12CCCCC2")
77.7
>>> experimental_value("NC1CCC(NC2CC2c2ccccc2)CC1 (stereo not given) + CCN1C(C(=O)NC23CCC(C(=O)O)(CC2)CC3)C(c2cccc(Cl)c2F)C2(C(=O)Nc3cc(Cl)ccc32)C12CCCCC2")
94.3
>>> experimental_value("C#Cc1c(F)ccc2cc(O)cc(-c3ncc4c(N5CC6CCC(C5)N6)nc(OCC56CCCN5CC(F)C6)nc4c3F)c12 (stereo not given) + CCN1C(C(=O)NC23CCC(C(=O)O)(CC2)CC3)C(c2cccc(Cl)c2F)C2(C(=O)Nc3cc(Cl)ccc32)C12CCCCC2")
101
>>> experimental_value("O=C(c1cc(Cc2n[nH]c(=O)c3ccccc23)ccc1F)N1CCN(C(=O)C2CC2)CC1 + CCN1C(C(=O)NC23CCC(C(=O)O)(CC2)CC3)C(c2cccc(Cl)c2F)C2(C(=O)Nc3cc(Cl)ccc32)C12CCCCC2")
101
>>> experimental_value("CNC(C)C(=O)NC1CN(S(=O)(=O)c2cccc(S(=O)(=O)N3CCC4CCC(C(=O)NC(c5ccccc5)c5ccccc5)N4C(=O)C(NC(=O)C(C)NC)C3)c2)CCC2CCC(C(=O)NC(c3ccccc3)c3ccccc3)N2C1=O (stereo not given) + CCN1C(C(=O)NC23CCC(C(=O)O)(CC2)CC3)C(c2cccc(Cl)c2F)C2(C(=O)Nc3cc(Cl)ccc32)C12CCCCC2")
84.5
>>> experimental_value("COc1c(OCCCN2CCOCC2)ccc2c3n(c(=NC(=O)c4cnc(N)nc4)nc12)CCN3 + CCN1C(C(=O)NC23CCC(C(=O)O)(CC2)CC3)C(c2cccc(Cl)c2F)C2(C(=O)Nc3cc(Cl)ccc32)C12CCCCC2")
56.6
>>> experimental_value("C=C(F)C(=O)N1CCN(c2nc(OCC3CCCN3C)nc3c2CCN(c2cccc4cccc(Cl)c24)C3)CC1CC#N (stereo not given) + CCN1C(C(=O)NC23CCC(C(=O)O)(CC2)CC3)C(c2cccc(Cl)c2F)C2(C(=O)Nc3cc(Cl)ccc32)C12CCCCC2")
101
>>> experimental_value("Cn1ncnc1[C@H]1c2n[nH]c(=O)c3cc(F)cc(c23)N[C@@H]1c1ccc(F)cc1 + CCN1C(C(=O)NC23CCC(C(=O)O)(CC2)CC3)C(c2cccc(Cl)c2F)C2(C(=O)Nc3cc(Cl)ccc32)C12CCCCC2")
98.3
>>> experimental_value("O=C(c1ccc(F)c(F)c1Nc1ccc(I)cc1F)N1CC(O)([C@@H]2CCCCN2)C1 + CCN1C(C(=O)NC23CCC(C(=O)O)(CC2)CC3)C(c2cccc(Cl)c2F)C2(C(=O)Nc3cc(Cl)ccc32)C12CCCCC2")
66.3

Inquiry: Tell me viability, T/C reported for C=CC(=O)N1CCN(c2nc(=O)n(-c3c(C)ccnc3C(C)C)c3nc(-c4c(O)cccc4F)c(F)cc23)C(C)C1 (stereo not given) + CCN1C(C(=O)NC23CCC(C(=O)O)(CC2)CC3)C(c2cccc(Cl)c2F)C2(C(=O)Nc3cc(Cl)ccc32)C12CCCCC2
Reply text: 105
